System name: Procathepsin L (Homo sapiens)
Sequence (P07711 whole entry): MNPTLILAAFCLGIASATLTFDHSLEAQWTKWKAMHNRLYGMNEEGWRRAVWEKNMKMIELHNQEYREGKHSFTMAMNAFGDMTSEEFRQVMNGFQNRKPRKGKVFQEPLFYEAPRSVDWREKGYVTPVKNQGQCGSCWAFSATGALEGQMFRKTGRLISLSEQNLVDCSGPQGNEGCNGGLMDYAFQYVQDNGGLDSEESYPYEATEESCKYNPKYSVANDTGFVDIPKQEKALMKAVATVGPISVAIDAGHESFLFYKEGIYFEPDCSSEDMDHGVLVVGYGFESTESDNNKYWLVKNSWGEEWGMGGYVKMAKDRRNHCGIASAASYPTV
pIC50: −log10 of the molar value.
Experimental readout: pIC50

O=C(c1cncc2ccc(F)cc12)N1CCN(Cc2ccc(Cl)cc2Cl)CC1    < 3.90
O=C1N[C@@H](Cc2cc(Cl)ccc2F)C(=O)N1c1cncc(F)c1    < 3.90
O=C(c1cccnc1)N1CCN(Cc2cccc(Cl)c2Cl)CC1    < 3.90
O=C1N(Cc2ccccc2Cl)CCN1c1cncc2ccc(Cl)cc12    < 3.90

[ask] Record request: pIC50 value, item O=C(Nn1cnc2c(F)cc(F)cc21)C1COc2cc(Cl)c(Cl)cc21 (racemic)
[reply] 3.99

[ask] Record request: pIC50 value, item Cc1cncc(CC(=O)N2CCc3cc(Cl)c(Cl)cc3C2)c1
[reply] < 3.90
